- test.target: IFN-α4a (human, UniProt P05014 24-189)
- method.notes: cell-based or functional assay
Reported IC50 (pM), ISRE assay values for a set of binders
attribute.measured: IC50 (pM), ISRE assay

binder	attribute.measured	recorded.measurement
IFWM3416 (antibody, IgG1, V domains shown) VH: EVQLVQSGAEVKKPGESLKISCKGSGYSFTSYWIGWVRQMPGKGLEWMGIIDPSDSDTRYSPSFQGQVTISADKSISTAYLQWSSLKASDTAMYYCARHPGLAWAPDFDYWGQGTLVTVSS VL: DIQMTQSPSSLSASVGDRVTITCRASQSIRNTNLNWYQQKPGKAPKLLIHWASSLQSGVPSRFSGSGSGTDFTLTISSLQPEDFATYYCQQGYDTPFTFGQGTKVEIK	IC50 (pM), ISRE assay	201
IFWM3320 (antibody, IgG1, V domains shown) VH: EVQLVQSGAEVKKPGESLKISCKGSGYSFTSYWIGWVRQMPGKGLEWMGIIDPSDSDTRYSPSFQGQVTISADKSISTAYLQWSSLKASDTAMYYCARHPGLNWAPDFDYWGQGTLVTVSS VL: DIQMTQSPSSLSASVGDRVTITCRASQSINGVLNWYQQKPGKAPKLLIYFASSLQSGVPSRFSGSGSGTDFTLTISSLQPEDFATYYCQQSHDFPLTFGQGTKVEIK	IC50 (pM), ISRE assay	166
IFWM3322 (antibody, IgG1, V domains shown) VH: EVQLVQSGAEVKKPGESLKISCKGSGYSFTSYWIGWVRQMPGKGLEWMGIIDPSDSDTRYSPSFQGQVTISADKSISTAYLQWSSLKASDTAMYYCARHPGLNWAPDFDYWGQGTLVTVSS VL: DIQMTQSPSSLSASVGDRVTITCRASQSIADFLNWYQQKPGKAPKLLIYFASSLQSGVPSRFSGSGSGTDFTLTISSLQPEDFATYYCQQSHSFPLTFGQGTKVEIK	IC50 (pM), ISRE assay	352

FYI, the data here is from patent US20150368338A1.
